Catalogue of compounds with associated pIC50
target: FLT3 D835Y (Homo sapiens, UniProt P36888, D835Y); experiment: Lanthascreen TR-FRET enzymatic assay, FLT3 D835Y; conditions: 1 hour at 25° C., 1% DMSO, read-out: Enzymology (IC50) FLT3 D835Y
pIC50: −log10 of the molar value.

Below: 2 compounds and their reported pIC50.
- Compound: "COc1cc2c(cc1N)c(=O)n(C)c1cnc(Nc3ccc(F)c(N)c3)nc21 [Compound C28]"
  Experimental Endpoint: "pIC50"
  Measured Result: "7.00 to 7.60"
- Compound: "CN1CCN(c2cccc(Nc3ncc4c(n3)c3ccc(N)cc3c(=O)n4C)c2)CC1 [Compound C6]"
  Experimental Endpoint: "pIC50"
  Measured Result: "> 7.60"

Look up and report measured pIC50 for this entry: Cn1c(=O)c2cc(N)ccc2c2nc(Nc3ccc(OCCN4CCCC4)cc3)ncc21 [Compound C34]
> 7.60

Look up and report measured pIC50 for this entry: Cn1c(=O)c2cc(N)ccc2c2nc(Nc3cccc(N)c3)ncc21 [Compound C2]
> 7.60

Look up and report measured pIC50 for this entry: COc1cc2c(cc1N)c(=O)n(C)c1cnc(Nc3ccc(OCCN4CCCC4)cc3)nc21 [Compound C42]
> 7.60

Look up and report measured pIC50 for this entry: COc1cc2c(cc1N)c(=O)n(C)c1cnc(Nc3cc(N)cc(F)c3)nc21 [Compound C26]
7.00 to 7.60

Look up and report measured pIC50 for this entry: CN1CCN(c2ccc(Nc3ncc4c(n3)c3ccc(N)cc3c(=O)n4C)cc2)CC1 [Compound C4]
> 7.60

Look up and report measured pIC50 for this entry: COc1cc2c(cc1N)c(=O)n(C)c1cnc(Nc3ccc(N4CCN(C)CC4)cc3)nc21 [Compound C10]
> 7.60

Look up and report measured pIC50 for this entry: Cn1c(=O)c2cc(N)ccc2c2nc(Nc3ccc(F)c(N)c3)ncc21 [Compound C22]
> 7.60

###

molecular target: FLT3-ITD (Homo sapiens, UniProt P36888); construct: fused on or other part: GST tag (detected with the Europium-tagged anti-GST antibody); assay: Lanthascreen TR-FRET enzymatic assay, FLT3-ITD; conditions: 1 hour at 25° C., 1% DMSO, read-out: Enzymology (IC50) FLT3-ITD
pIC50: −log10 of the molar value.
Experimental Endpoint: pIC50

Below: 4 compounds and their reported pIC50.
- Smiles Notation: "Cn1c(=O)c2cc(N)ccc2c2nc(Nc3ccc(OCCN4CCCC4)cc3)ncc21"
  Target Or Test System: "FLT3-ITD (Homo sapiens, UniProt P36888)"
  pIC50: "> 7.60"
- Smiles Notation: "COc1cc2c(cc1N)c(=O)n(C)c1cnc(Nc3ccc(N4CCN(C)CC4)cc3)nc21"
  Target Or Test System: "FLT3-ITD (Homo sapiens, UniProt P36888)"
  pIC50: "> 7.60"
- Smiles Notation: "COc1cc2c(cc1N)c(=O)n(C)c1cnc(Nc3cc(N)cc(F)c3)nc21"
  Target Or Test System: "FLT3-ITD (Homo sapiens, UniProt P36888)"
  pIC50: "7.00 to 7.60"
- Smiles Notation: "COc1cc2c(cc1N)c(=O)n(C)c1cnc(Nc3ccc(F)c(N)c3)nc21"
  Target Or Test System: "FLT3-ITD (Homo sapiens, UniProt P36888)"
  pIC50: "> 7.60"

Shifting focus to the compound that follows.
Look up and report measured pIC50 for this entry: CN1CCN(c2ccc(Nc3ncc4c(n3)c3ccc(N)cc3c(=O)n4C)cc2)CC1
> 7.60
